System: HOP-62
Assay: NCI tumour cell line growth inhibition, 48 h
Active and inactive are the calls of the source. No stated cut-off is given here; in the data, active = GI50 up to about 1.1 µM and inactive = higher.
Hello, when you answer, please use one of the following outcomes: y (active), n (inactive)

MOLECULE	TARGET OR SYSTEM	ANSWER LABEL
FC(F)(F)C1(Br)C(c2ccccc2)=C1c1ccccc1	HOP-62	n
Cc1cn([C@@H]2C[C@H](CO)[C@@H](O)C2)c(=O)[nH]c1=O	HOP-62	n
CC(C)OP(=O)(OC(C)C)/C(=N/Nc1ccc([N+](=O)[O-])cc1)NN	HOP-62	n
Cc1ccc(-c2c(C#N)c(-c3ccc(Cl)cc3)c(C#N)c(=O)n2NS(=O)(=O)c2ccccc2)cc1	HOP-62	n
Nc1ncc(C=O)c(NCC2(CO)CCC2)n1	HOP-62	n

Here's the next entry for you.
input: Fill in: this test's call for "CC(=O)Nc1ccc(C2C(C(=O)Nc3ccccc3)=C(C)NC(C)=C2C(=O)Nc2ccccc2)cc1" is ___
output: n

The values you see were collected from ChEMBL document CHEMBL1201862.
